Below: a set of entries, each annotated with reported MIC.
# System: Acinetobacter baumannii ATCC 19606
# experiment_notes: Antimicrobial MIC assay (CO-ADD) against A. baumannii
# Assay type: cell-based
# conditions: Acinetobacter baumannii, ATCC19606, read-out: MIC A.b.

>  <mol>
C[C@H](CCC(=O)NCCCNCCCCNCCCNC(=O)CC[C@@H](C)[C@H]1CC[C@H]2[C@@H]3C[C@H](O)[C@@H]4C[C@H](O)CC[C@]4(C)[C@H]3CC[C@]12C)[C@H]1CC[C@H]2[C@@H]3C[C@H](O)[C@@H]4C[C@H](O)CC[C@]4(C)[C@H]3CC[C@]12C.O=C(O)C(F)(F)F.O=C(O)C(F)(F)F

>  <measured_on>
Acinetobacter baumannii ATCC 19606

>  <MIC>
> 27 µM

$$$$
>  <mol>
C[C@H](CCC(=O)NCCCNCCCCCCCCNCCCNC(=O)CC[C@@H](C)[C@H]1CC[C@H]2[C@@H]3[C@@H](O)C[C@@H]4C[C@H](O)CC[C@]4(C)[C@H]3CC[C@]12C)[C@H]1CC[C@H]2[C@@H]3[C@@H](O)C[C@@H]4C[C@H](O)CC[C@]4(C)[C@H]3CC[C@]12C.O=C(O)C(F)(F)F.O=C(O)C(F)(F)F

>  <measured_on>
Acinetobacter baumannii ATCC 19606

>  <MIC>
> 26 µM

$$$$
>  <mol>
C[C@H](CCC(=O)NCCCNCCCCCCCCNCCCNC(=O)CC[C@@H](C)[C@H]1CC[C@H]2[C@@H]3C[C@H](O)[C@@H]4C[C@H](O)CC[C@]4(C)[C@H]3CC[C@]12C)[C@H]1CC[C@H]2[C@@H]3C[C@H](O)[C@@H]4C[C@H](O)CC[C@]4(C)[C@H]3CC[C@]12C.O=C(O)C(F)(F)F.O=C(O)C(F)(F)F

>  <measured_on>
Acinetobacter baumannii ATCC 19606

>  <MIC>
> 26 µM

$$$$
